subject.of.test: recombinant human GREM1 (hGREM1-His; C-terminal 10His tagged, R&D, #5190-GR) (human) (UniProt O60565)
Sequence (O60565 other isoform, or with tags, fused parts or gaps limits assumed, form in doubt): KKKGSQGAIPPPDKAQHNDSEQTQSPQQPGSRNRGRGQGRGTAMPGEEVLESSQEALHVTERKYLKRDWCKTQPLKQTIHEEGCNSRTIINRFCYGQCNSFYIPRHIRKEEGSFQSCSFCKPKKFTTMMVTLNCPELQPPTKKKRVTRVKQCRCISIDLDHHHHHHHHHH
method: BLI Octet, captured mAb, 100 nM GREM1
value.kind: Binding Signal with 300 sec Association (nm)
The reply should contain only the number, in nm.

binder="H4H6243P (antibody, human IgG4, V domains shown) VH: QVQLVQSGAEVKKPGASVKVSCKVSGYTLTELSMHWVRQAPGKGLEWMGGFDPEDGETIYAQKFQDRVTMTEDTSTDTAYMELSSLRSEDTAVYYCVTDDYEILPEYPYNMDVWGQGTTVTVSS VL: DIQMTQSPSSLSASVGDRVTITCRASQSISTYLNWYQQKPGKAPKLLIYAASSLQSGVPSRFSGSGSGTDFTLTIRSLQPEDFATYYCQQSHITPFTFGPGTKVDIK" result_number=0.47

For the next question, use this binder.
stdin: I am curious: what Binding Signal with 300 sec Association (nm) value has been reported for H4H6240P (antibody, human IgG4, V domains shown) VH: QVQLVESGGGVVQPGRSLRLSCAASGFTFSSYGMHWVRQAPGKGLEWVAVIWYDGSNKYYADSVKGRFIISRDNSKNMMYLQMNSLRAEDTAVYYCAREDNWNYAFDYWGQGTLVTVSS VL: EIVMTQSPATLSVSPGERATLSCRASQSISSNLAWYQQKPGQAPRLLIYDSSTRATGIPARFSGSGSGTQFTLTISSLQSEDFALYYCQQYSNWPPFTFGPGTKVDIK ?
stdout: 0.53

All figures here come from patent US20230192831A1.
